- Study system: αvβ3 integrin (Homo sapiens, UniProt P05106+P06756)
- Sequence (P06756 31-889 limits assumed): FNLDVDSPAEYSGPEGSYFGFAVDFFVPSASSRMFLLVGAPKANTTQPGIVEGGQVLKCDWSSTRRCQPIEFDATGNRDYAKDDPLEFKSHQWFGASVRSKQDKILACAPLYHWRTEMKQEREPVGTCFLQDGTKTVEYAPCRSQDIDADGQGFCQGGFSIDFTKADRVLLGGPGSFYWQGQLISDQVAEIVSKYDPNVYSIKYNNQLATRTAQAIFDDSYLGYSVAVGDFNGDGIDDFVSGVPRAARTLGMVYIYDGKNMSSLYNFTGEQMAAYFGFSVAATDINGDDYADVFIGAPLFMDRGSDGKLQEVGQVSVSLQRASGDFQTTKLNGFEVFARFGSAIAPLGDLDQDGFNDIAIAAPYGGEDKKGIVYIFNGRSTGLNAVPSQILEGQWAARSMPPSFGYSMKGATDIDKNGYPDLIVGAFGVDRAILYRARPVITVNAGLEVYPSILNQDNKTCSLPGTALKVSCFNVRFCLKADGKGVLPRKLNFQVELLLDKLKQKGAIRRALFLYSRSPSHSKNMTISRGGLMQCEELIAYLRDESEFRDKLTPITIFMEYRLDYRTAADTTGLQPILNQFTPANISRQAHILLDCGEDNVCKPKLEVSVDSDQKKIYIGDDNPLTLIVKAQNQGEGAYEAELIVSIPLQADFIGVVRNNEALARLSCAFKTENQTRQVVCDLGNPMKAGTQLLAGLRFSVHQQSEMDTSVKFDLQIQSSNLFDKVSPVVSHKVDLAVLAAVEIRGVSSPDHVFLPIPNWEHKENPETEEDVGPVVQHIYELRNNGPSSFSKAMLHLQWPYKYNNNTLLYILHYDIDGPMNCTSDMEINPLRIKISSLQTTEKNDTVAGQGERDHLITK
- Sequence (P06756 891-1048 partner limits assumed): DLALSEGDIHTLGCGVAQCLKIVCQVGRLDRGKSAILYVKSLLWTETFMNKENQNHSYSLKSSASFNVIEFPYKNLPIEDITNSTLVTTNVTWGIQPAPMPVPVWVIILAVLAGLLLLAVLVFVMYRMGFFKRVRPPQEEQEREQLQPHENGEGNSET
- Sequence (P05106 27-788): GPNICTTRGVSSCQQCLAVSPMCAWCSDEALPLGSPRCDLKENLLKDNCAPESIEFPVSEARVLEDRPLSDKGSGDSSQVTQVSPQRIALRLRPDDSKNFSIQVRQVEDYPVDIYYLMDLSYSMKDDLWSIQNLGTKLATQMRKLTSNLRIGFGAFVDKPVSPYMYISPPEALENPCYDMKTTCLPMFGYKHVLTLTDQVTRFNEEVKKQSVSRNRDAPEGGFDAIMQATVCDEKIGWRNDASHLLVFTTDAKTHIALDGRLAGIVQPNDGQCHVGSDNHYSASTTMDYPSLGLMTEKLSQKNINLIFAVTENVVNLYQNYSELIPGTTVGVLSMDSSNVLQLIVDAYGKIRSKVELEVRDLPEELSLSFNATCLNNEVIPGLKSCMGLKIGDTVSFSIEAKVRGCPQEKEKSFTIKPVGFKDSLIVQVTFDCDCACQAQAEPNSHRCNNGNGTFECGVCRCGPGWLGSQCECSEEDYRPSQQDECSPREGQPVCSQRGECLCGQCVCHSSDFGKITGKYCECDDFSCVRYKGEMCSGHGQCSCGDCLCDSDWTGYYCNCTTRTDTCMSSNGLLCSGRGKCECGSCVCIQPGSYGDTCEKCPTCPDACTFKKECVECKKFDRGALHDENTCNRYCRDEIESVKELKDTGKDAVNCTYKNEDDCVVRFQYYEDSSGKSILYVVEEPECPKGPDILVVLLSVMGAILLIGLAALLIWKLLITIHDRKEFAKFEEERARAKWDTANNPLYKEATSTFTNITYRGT
- Method description: Inhibition of biotinylated LXW7 binding to αvβ3-K562 cells (flow cytometry)
- Set-up: expressed in transfected cells; host or cells: K562 (gift of Dr. Yoshikazu Takada, UC Davis)
- Condition description: LXW9-92: inhibiting the binding of biotinylated LXW7 against αvβ3-K562 cells; class symbols
- Procedure: The apparent IC50 were calculated using Graph Prism software (≦www.graphpad.com≧). The samples were analyzed with Coulter XL-MCL flow cytometry. The histogram and mean fluorescence intensity (MFI) were determined. The apparent Kd, IC50 were calculated using Graph Prism software (≦www.graphpad.com≧).
Bridge positions count the residues as written; N and C are the ends. Square brackets hold non-standard residues; d marks the D form. Peptide text beside a SMILES is read from it. * marks the point of attachment. Benzoyl(4-CF3) = O=C(c1ccc(C(F)(F)F)cc1)*; Benzoyl(4-Ph) = O=C(c1ccc(-c2ccccc2)cc1)*; Phenylacetyl(4-Cl) = O=C(Cc1ccc(Cl)cc1)*; 2Naphthoyl = O=C(c1ccc2ccccc2c1)*; NMeR = CN[C@@H](CCCNC(=N)N)C(=O)O; dPen = CC(C)(S)[C@@H](N)C(=O)O; Pentanoyl = CCCCC(=O)*; X4 = O=C(c1ccc(Br)o1)*; X3 = Cc1nc(C(=O)*)cs1
As shown below, each of these compounds has a reported IC50 value.
Reported metric: IC50

Compound	Study system	Reported metric	Result
CCCCC(=O)N[C@@H]1CSSC[C@H](C(N)=O)NC(=O)[C@@H](C(C)C)NC(=O)[C@@H](CC(=O)O)NC(=O)[C@H](CC(=O)O)NC(=O)CNC(=O)[C@H](CCCNC(=N)N)NC(=O)CNC1=O [LXW77, valeryl-cGRGDdvc] (Pentanoyl-[dC]GRGD[dD][dV][dC]-NH2; disulfide 1-8)	αvβ3 integrin (Homo sapiens, UniProt P05106+P06756)	IC50	1000 to 10000 nM
CC(C)[C@H]1NC(=O)[C@@H](CC(=O)O)NC(=O)[C@H](CC(=O)O)NC(=O)CNC(=O)[C@H](CCCNC(=N)N)NC(=O)CNC(=O)[C@H](N)CSSC[C@@H](C(N)=O)NC1=O [LXW10, cGRGDdvC] (H-[dC]GRGD[dD][dV]C-NH2; disulfide 1-8)	αvβ3 integrin (Homo sapiens, UniProt P05106+P06756)	IC50	1000 to 10000 nM
C#CC[C@H]1NC(=O)[C@@H](CC(=O)O)NC(=O)[C@H](CC(=O)O)NC(=O)CNC(=O)[C@H](CCCNC(=N)N)NC(=O)CNC(=O)[C@H](N)CSSC[C@@H](C(N)=O)NC1=O	αvβ3 integrin (Homo sapiens, UniProt P05106+P06756)	IC50	1000 to 10000 nM
CC(C)[C@H]1NC(=O)[C@@H](CC(=O)O)NC(=O)[C@H](CC(=O)O)NC(=O)CNC(=O)[C@H](CCCNC(=N)N)NC(=O)CNC(=O)[C@H](NC(=O)c2ccc(Br)o2)CSSC[C@H](C(N)=O)NC1=O [LXW90, 5-bromo-2-furoyl-cGRGDdvc] (X4-[dC]GRGD[dD][dV][dC]-NH2; disulfide 1-8)	αvβ3 integrin (Homo sapiens, UniProt P05106+P06756)	IC50	1000 to 10000 nM
CC(C)[C@H]1NC(=O)[C@@H](CC(=O)O)NC(=O)[C@H](CC(=O)O)NC(=O)CNC(=O)[C@H](CCCNC(=N)N)NC(=O)CNC(=O)[C@H](NC(=O)c2ccc3ccccc3c2)CSSC[C@H](C(N)=O)NC1=O [LXW89, 2-naphthoyl-cGRGDdvc] (2Naphthoyl-[dC]GRGD[dD][dV][dC]-NH2; disulfide 1-8)	αvβ3 integrin (Homo sapiens, UniProt P05106+P06756)	IC50	< 1000 nM
CC(C)[C@H]1NC(=O)[C@@H](CC(=O)O)NC(=O)[C@H](CC(=O)O)NC(=O)CNC(=O)[C@H](CCCNC(=N)N)NC(=O)CNC(=O)[C@H](NC(=O)Cc2ccc(Cl)cc2)CSSC[C@H](C(N)=O)NC1=O [LXW81, p-chlorophenyl acetyl-cGRGDdvc] ({Phenylacetyl(4-Cl)}-[dC]GRGD[dD][dV][dC]-NH2; disulfide 1-8)	αvβ3 integrin (Homo sapiens, UniProt P05106+P06756)	IC50	1000 to 10000 nM
CC(C)[C@H]1NC(=O)[C@@H](CC(=O)O)NC(=O)[C@H](CC(=O)O)NC(=O)CNC(=O)[C@H](CCCNC(=N)N)NC(=O)CNC(=O)[C@H](N)C(C)(C)SSC(C)(C)[C@H](C(N)=O)NC1=O [LXW19, DPen-GRGDdv-DPen] (H-[dPen]GRGD[dD][dV][dPen]-NH2; disulfide 1-8)	αvβ3 integrin (Homo sapiens, UniProt P05106+P06756)	IC50	1000 to 10000 nM
C#CC[C@H]1NC(=O)[C@@H](CC(=O)O)NC(=O)[C@H](CC(=O)O)NC(=O)CNC(=O)[C@H](CCCNC(=N)N)NC(=O)CNC(=O)[C@H](N)CSSC[C@H](C(N)=O)NC1=O	αvβ3 integrin (Homo sapiens, UniProt P05106+P06756)	IC50	1000 to 10000 nM
CC(C)[C@H]1NC(=O)[C@@H](CC(=O)O)NC(=O)[C@H](CC(=O)O)NC(=O)CNC(=O)[C@H](CCCNC(=N)N)N(C)C(=O)CNC(=O)[C@H](N)CSSC[C@H](C(N)=O)NC1=O [LXW53, cG-(NMe)Arg-GDdvc] (H-[dC]G[NMeR]GD[dD][dV][dC]-NH2; disulfide 1-8)	αvβ3 integrin (Homo sapiens, UniProt P05106+P06756)	IC50	< 1000 nM
CC(C)[C@H]1NC(=O)[C@@H](CC(=O)O)NC(=O)[C@H](CC(=O)O)NC(=O)CNC(=O)[C@H](CCCNC(=N)N)NC(=O)CNC(=O)[C@H](NC(=O)c2ccc(C(F)(F)F)cc2)CSSC[C@H](C(N)=O)NC1=O [LXW85, 4-(trifluoromethyl)benzoyl-cGRGDdvc] ({Benzoyl(4-CF3)}-[dC]GRGD[dD][dV][dC]-NH2; disulfide 1-8)	αvβ3 integrin (Homo sapiens, UniProt P05106+P06756)	IC50	< 1000 nM
Cc1nc(C(=O)N[C@@H]2CSSC[C@H](C(N)=O)NC(=O)[C@@H](C(C)C)NC(=O)[C@@H](CC(=O)O)NC(=O)[C@H](CC(=O)O)NC(=O)CNC(=O)[C@H](CCCNC(=N)N)NC(=O)CNC2=O)cs1 [LXW86, 2-Methylthiazole-4-carbonyl-cGRGDdvc] (X3-[dC]GRGD[dD][dV][dC]-NH2; disulfide 1-8)	αvβ3 integrin (Homo sapiens, UniProt P05106+P06756)	IC50	< 1000 nM
CC(C)[C@H]1NC(=O)[C@@H](CC(=O)O)NC(=O)[C@H](CC(=O)O)NC(=O)CNC(=O)[C@H](CCCNC(=N)N)NC(=O)CNC(=O)[C@H](N)CSSC(C)(C)[C@H](C(N)=O)NC1=O [LXW21, cGRGDdv-DPen] (H-[dC]GRGD[dD][dV][dPen]-NH2; disulfide 1-8)	αvβ3 integrin (Homo sapiens, UniProt P05106+P06756)	IC50	1000 to 10000 nM
CC(C)[C@H]1NC(=O)[C@@H](CC(=O)O)NC(=O)[C@H](CC(=O)O)NC(=O)CNC(=O)[C@H](CCCNC(=N)N)NC(=O)CNC(=O)[C@H](NC(=O)c2ccc(-c3ccccc3)cc2)CSSC[C@H](C(N)=O)NC1=O [LXW84, biphenyl-4-carbonyl-cGRGDdvc] ({Benzoyl(4-Ph)}-[dC]GRGD[dD][dV][dC]-NH2; disulfide 1-8)	αvβ3 integrin (Homo sapiens, UniProt P05106+P06756)	IC50	< 1000 nM
